B1: Pistol ribozyme (parent)
chain: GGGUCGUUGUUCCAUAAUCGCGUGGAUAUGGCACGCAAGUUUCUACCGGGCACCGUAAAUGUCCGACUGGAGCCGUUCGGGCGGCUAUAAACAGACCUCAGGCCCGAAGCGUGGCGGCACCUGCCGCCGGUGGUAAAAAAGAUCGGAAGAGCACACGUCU

Variants of: B1
Assay: aptazyme ON/OFF ratio, guanine; higher = stronger switching; co-transcriptional cleavage with and without guanine
OBSERVATION_TYPE: aptazyme ON/OFF ratio
# respond with the number and nothing more

# annotated cases, reported aptazyme ON/OFF ratio shown
MUTATION_NAME | aptazyme ON/OFF ratio
U7G U8C G9C U10G U11C C12G C13A | 1.29
U7G G9U U10C U11G C13G | 1.22
U7G U8C U10C U11A C12G C13G | 1.21
U7A G9C U10A U11C C12A C13G | 1.1
U7C U8A G9C U11C C12A C13U | 1.08

### Prompt Would you mind telling me what aptazyme ON/OFF ratio value was observed for U7A U8G G9U U11A C12A C13A ?
### Response 1.53

### Prompt Would you mind telling me what aptazyme ON/OFF ratio value was observed for U7A U8A G9A U11A C12G C13A ?
### Response 1.14

### Prompt Would you mind telling me what aptazyme ON/OFF ratio value was observed for U7A G9C U10G U11G C13A ?
### Response 1.13

### Prompt Would you mind telling me what aptazyme ON/OFF ratio value was observed for U7A U8G G9A U10A U11G C12U ?
### Response 1.14

### Prompt Would you mind telling me what aptazyme ON/OFF ratio value was observed for U7A U8A G9A U11A C12U C13G ?
### Response 1.23

### Prompt Would you mind telling me what aptazyme ON/OFF ratio value was observed for U8G G9U U11G C13A ?
### Response 1.06

### Prompt Would you mind telling me what aptazyme ON/OFF ratio value was observed for U7A G9C U10A U11A C13U ?
### Response 1.1

### Prompt Would you mind telling me what aptazyme ON/OFF ratio value was observed for U7C G9U U10A U11C C12A ?
### Response 1.29

### Prompt Would you mind telling me what aptazyme ON/OFF ratio value was observed for U7G U8A G9A U10G U11G C13U ?
### Response 1.26

### Prompt Would you mind telling me what aptazyme ON/OFF ratio value was observed for U7A U8G G9U U10G U11A C12U C13G ?
### Response 1.18

### Prompt Would you mind telling me what aptazyme ON/OFF ratio value was observed for U7A U8A G9U U10C U11C C12G C13G ?
### Response 1.07

### Prompt Would you mind telling me what aptazyme ON/OFF ratio value was observed for U7C G9A U10A C12G C13A ?
### Response 1.35

### Prompt Would you mind telling me what aptazyme ON/OFF ratio value was observed for U7A U8C U10C U11G C13G ?
### Response 1.24

### Prompt Would you mind telling me what aptazyme ON/OFF ratio value was observed for U7C U8C G9C C12U C13G ?
### Response 1.11

### Prompt Would you mind telling me what aptazyme ON/OFF ratio value was observed for U7C U10C U11A C12A C13G ?
### Response 1.26

### Prompt Would you mind telling me what aptazyme ON/OFF ratio value was observed for U8G C13G ?
### Response 1.2

### Prompt Would you mind telling me what aptazyme ON/OFF ratio value was observed for U7A G9C U11G C12U ?
### Response 1.57

### Prompt Would you mind telling me what aptazyme ON/OFF ratio value was observed for U7G G9A U10G U11C C12G ?
### Response 1.1
